Data provenance: patent US5432058A

- experimentalProtocol: Dual stable isotope cholesterol absorption study in healthy subjects (oral and intravenous tracers, plasma tracer ratio by GC/MS on day 3)
- Format: in vivo, human
- appliedConditions: human, in vivo, po, 30 mg, test 1, five healthy subjects; read-out: cholesterol absorption, range between subjects
reportedEndpoint: Fa at 72 h

Exam item: Retrieve Fa at 72 h measured for CC(C)CCC[C@@H](C)[C@H]1CC[C@H]2[C@@H]3CC=C4C[C@@H](O)CC[C@]4(C)[C@H]3CC[C@]12C [cholesterol] and print it.
Marked response: 47 to 71%

###

- experimentalProtocol: Dual stable isotope cholesterol absorption study in healthy subjects (oral and intravenous tracers, plasma tracer ratio by GC/MS on day 3)
- Type: in vivo, human
- appliedConditions: human, in vivo, po, 30 mg, mean of five healthy subjects, test 2, 4-6 weeks later; read-out: mean cholesterol absorption, Test 2
reportedEndpoint: Fa at 72 h (%)
Entry rule: numbers only, all in %.

Exam item: Entry CC(C)CCC[C@@H](C)[C@H]1CC[C@H]2[C@@H]3CC=C4C[C@@H](O)CC[C@]4(C)[C@H]3CC[C@]12C needs its Fa at 72 h filled in; supply it.
Marked response: 57.6

###

- experimentalProtocol: Dual stable isotope cholesterol absorption study in healthy subjects (oral and intravenous tracers, plasma tracer ratio by GC/MS on day 3)
- Format: in vivo, human
- appliedConditions: human, in vivo, po, 30 mg, mean of five healthy subjects, test 1; read-out: mean cholesterol absorption, Test 1
reportedEndpoint: Fa at 72 h (%)
Only the number, expressed in %, is required.

Exam item: Specify Fa at 72 h for CC(C)CCC[C@@H](C)[C@H]1CC[C@H]2[C@@H]3CC=C4C[C@@H](O)CC[C@]4(C)[C@H]3CC[C@]12C [cholesterol] and stop.
Marked response: 59.3
